experiment-notes: Serum stability, human serum
Assay type: in vitro ADME
reported-conditions: 25% human serum, after 24 h of incubation; read-out: peptide still intact
outcome-measure: remaining at 24 h

Look up remaining at 24 h for this molecule: CC(C)[C@@H](NC(=O)[C@@H](Cc1c[nH]cn1)NC(=O)CNC(=O)[C@@H](Cc1c[nH]c2ccccc12)NC(=O)[C@@H](CCCCN)NC(=O)[C@H](N)[C@H](C)O)C(=O)N[C@H](CC(N)=O)C(=O)N[C@H](CCCCN)C(=O)NCCCCCC(N)=O [BTP-7-X]
~40%
